Entries and their Kd values follow.
Assay system: T1, PUF4 RNA-binding domain (Saccharomyces cerevisiae, UniProt P25339 537-888)
T1 sequence: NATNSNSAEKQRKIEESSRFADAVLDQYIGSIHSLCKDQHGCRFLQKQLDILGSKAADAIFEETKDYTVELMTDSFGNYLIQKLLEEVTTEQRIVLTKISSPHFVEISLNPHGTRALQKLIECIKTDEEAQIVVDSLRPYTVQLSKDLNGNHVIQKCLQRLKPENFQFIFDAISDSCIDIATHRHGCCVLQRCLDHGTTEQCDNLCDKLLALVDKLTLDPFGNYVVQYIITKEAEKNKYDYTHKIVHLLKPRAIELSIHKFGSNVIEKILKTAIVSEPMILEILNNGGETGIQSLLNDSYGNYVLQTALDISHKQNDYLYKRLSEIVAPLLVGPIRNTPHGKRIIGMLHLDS
Procedure text: Mg; RNA-MaP; 20 mM Na-HEPES pH 7.4, 30 mM KOAc, 0.75 mM MgCl2, 0.1% Tween-20, 5% glycerol, 0.1 mg/mL BSA, 2 mM DTT; 25 C; 0.0125-409.6 nM protein
Condition label: tags: N-His6-TEV cleaved; C-SNAP kept, Cy3B-labelled; label: tethered on chip by stalled RNA polymerase
Field: numeric (nM). Do not append units.

Q: Would you mind telling me what Kd value was observed for Ic_S2_P5E.1_K5.1_C5.1_H5.1_A5.1_[T6C]_[A7T]_F5.1_[T8A]_T5.1 (ssRNA) RNA: UUUGAUUAAUAUGAUAUCGUUCUUUCUUGUAUCUAUAUUCUUUCUCGAUAUCAUAUUAAUCUUU ?
A: 3.38

Q: Any idea what its Kd is? The binder is UCUCUUUGUCUCUUAUUAUUAUCUCUU (ssRNA) [Ie_S1_P5E.1_K5.1_C5.1_H5.1_[+2TCTCT]_A5.1_F5.1_T5.1]
A: 332

Where do these numbers come from? They come from paper PMC9352680.
